Test: gradient 5% acetonitrile 3 min, to 50% in 2 min, to 85% in 15 min, held 3 min, 100 µL/min
Conditions: column: Zorbax Extend-C18 2.1 x 50 mm; eluents: water / acetonitrile, 0.1% formic acid
Property label: RP-LC retention time (s)

{"columns": ["Molecule", "Recorded result"],
 "data": [
  ["CCCn1c(=O)c2cc(C(=O)Nc3cccc(C)c3)nn2c2ccccc21", 1080],
  ["CN1c2c(Cl)cccc2C(=O)NC12CCN(C(=O)c1ccccc1)CC2", 768],
  ["CCC(=O)Nc1ccc(SCc2cc(C)ccc2C)nn1", 919],
  ["CCOc1cc(-c2ccc(F)cc2)nc2ccc(NC(=O)C3CCC3)cc12", 774],
  ["O=C(O)C1CCCN(CCC=C(c2ccccc2)c2ccccc2)C1 (stereo not given)", 783],
  ["O=C(CCc1nnc(C(=O)Nc2ccccc2)s1)NCCc1c[nH]c2ccccc12", 843],
  ["O=C(NCc1ccccn1)C1CCN(c2cc(N3CCSCC3)ncn2)CC1", 559],
  ["COC(=O)C1=CN(c2cccc(C#N)c2)c2ccc(F)cc2S1(=O)=O", 787],
  ["COc1cccc(NC(=O)Cn2nc3nc(N4CCCC(C)C4)ccn3c2=O)c1 (stereo not given)", 768],
  ["COc1ccc(CN(Cc2ccccc2)Cc2cc(=O)n3ccccc3n2)cc1", 666],
  ["Cc1ccc(-c2nnc(Cc3nc(-c4ccc(F)cc4)no3)o2)cc1C", 1120],
  ["Cn1nc(C2CCN(S(=O)(=O)Cc3cccc(Cl)c3)CC2)n(C2CCCC2)c1=O", 888],
  ["CCOC(=O)C(C(=O)NCCCN1CCOCC1)C1CCCCC1 (stereo not given)", 624],
  ["CC(=O)NCCc1csc(C2CCCN(C(=O)C3CCOC3)C2)n1 (stereo not given)", 603],
  ["OC(CN1CCN(c2cccc(Cl)c2)CC1)C(c1ccccc1)c1ccccc1 (stereo not given)", 885],
  ["CN1C(=O)c2cccnc2Sc2cc(NC(=O)c3cccc(C(F)(F)F)c3)ccc21", 910],
  ["CCOc1cccc(-c2noc(-c3nn(-c4ccccc4)ccc3=O)n2)c1", 942],
  ["O=C(CNC(=O)Cc1ccccc1)NCC(=O)N1CCCc2ccccc21", 710],
  ["Cc1ncc2c(n1)C[C@@H]1CC[C@H]2N1C(=O)COc1ccccc1", 669],
  ["CCc1nn2c(CNC(=O)c3cc(F)ccc3Cl)c(C)nc2s1", 669]
]}
